biological target: T1, anti-FXI/FXIa antibody NOV1401; assay: SPR (ProteOn XPR36), NOV1401 amine-coupled on the chip, Fab as analyte 0.125-4 nM, Langmuir 1:1 fit, 25 C; average of n=2
T1 construct: It was amine-coupled to the chip in SPR; In SET it was titrated in solution, and biotinylated NOV1401 served only as the capture reagent on the plate
T1 sequence (VL, as listed by the source): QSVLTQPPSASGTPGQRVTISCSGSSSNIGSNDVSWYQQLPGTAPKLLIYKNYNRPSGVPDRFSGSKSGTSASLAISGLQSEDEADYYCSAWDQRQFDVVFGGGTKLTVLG
value-kind: pKd
A value of pKd is the negative decimal logarithm of a concentration given in moles per litre.

Below, each entry is followed by its recorded pKd result.
# binder, pKd
data = [
    ("IDT1 anti-NOV1401 Fab (Fab, V domains shown, The heavy chain entry is VH-CH1 (Fd); also called antidote) VH: QVQLLESGGGLVQPGGSLRLSCAASGFTFSDYAMSWVRQAPGKGLEWVSVIDYSSSNTYYADSVKGRFTISRDNSKNTLYLQMNSLRAEDTAVYYCAREGYSYRSIRFDYWGQGTLVTVSS VL: DIQMTQSPSSLSASVGDRVTITCRASQSISSNLNWYQQKPGKAPKLLIYAASNLQSGVPSRFSGSGSGTDFTLTISSLQPEDFATYYCLQFDHTPFTFGQGTKVEIKR", 9.36),
    ("IDT6 anti-NOV1401 Fab (Fab, V domains shown, Human Fab with a lambda light chain; The heavy chain entry is VH-CH1 (Fd); also called antidote) VH: QVQLVQSGAEVKKPGESLKISCKGSGYSFTNYWIGWVRQMPGKGLEWMGIIFPGVSYTKYSPSFQGQVTISADKSISTAYLQWSSLKASDTAMYYCARGSDQTLRGSRAMDYWGQGTLVTVSS VL: QSALTQPASVSGSPGQSITISCTGTSSDVGISNYVSWYQQHPGKAPKLMIYEVSNRPSGVSNRFSGSKSGNTASLTISGLQAEDEADYYCQSYTSLNYVFGGGTKLTVLG", 8.00),
]

Next:
[ask] Please give the documented pKd of IDT5 anti-NOV1401 Fab (Fab, V domains shown, Human Fab; The heavy chain entry is VH-CH1 (Fd); also called antidote) VH: QVQLVESGGGLVKPGGSLRLSCAASGFTFSSAAVHWVRQAPGKGLEWVGRIKSKADAGTTDYAAPVKGRFTISRDDSKNTLYLQMNSLKTEDTAVYYCARDSPSISSYSIPYFSGMDVWGQGTLVTVSS VL: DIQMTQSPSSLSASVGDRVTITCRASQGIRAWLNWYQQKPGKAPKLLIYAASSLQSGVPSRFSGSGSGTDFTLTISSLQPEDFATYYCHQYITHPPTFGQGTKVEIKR
[reply] 9.46
